All values here come from ChEMBL document CHEMBL5143513.

Consider the following molecules; for each one, report its IC50.
Test system: MDA-MB-231
Test: Cytotoxicity against human MDA-MB-231 cells assessed as reduction in cell viability incubated for 72 hrs by MTT assay
Format: functional, cell-based
Conditions: MDA-MB-231, 72 h
One number for each entry, in nM.

Batch: IC50 for all items listed.
1. CN1CCCCC1CCO/N=C1/C(=C2/C(=O)Nc3ccccc32)Nc2ccccc21 (stereo not given)
2. CN(C)CCCO/N=C1/C(=C2/C(=O)Nc3ccccc32)Nc2ccccc21
3. CN1CCCCC1CCO/N=C1/C(=C2/C(=O)Nc3ccc(F)cc32)Nc2ccccc21 (stereo not given)
4. CN1CCCC1CCO/N=C1/C(=C2/C(=O)Nc3ccccc32)Nc2ccccc21 (stereo not given)
5. CN1CCC(O/N=C2/C(=C3/C(=O)Nc4ccccc43)Nc3ccccc32)CC1

1170
440
530
250
250
